Data credit: ChEMBL document CHEMBL5236643

Biological target: Peroxisome proliferator-activated receptor delta (Homo sapiens, UniProt Q03181)
Sequence (Q03181 whole entry, the tested form may be a part): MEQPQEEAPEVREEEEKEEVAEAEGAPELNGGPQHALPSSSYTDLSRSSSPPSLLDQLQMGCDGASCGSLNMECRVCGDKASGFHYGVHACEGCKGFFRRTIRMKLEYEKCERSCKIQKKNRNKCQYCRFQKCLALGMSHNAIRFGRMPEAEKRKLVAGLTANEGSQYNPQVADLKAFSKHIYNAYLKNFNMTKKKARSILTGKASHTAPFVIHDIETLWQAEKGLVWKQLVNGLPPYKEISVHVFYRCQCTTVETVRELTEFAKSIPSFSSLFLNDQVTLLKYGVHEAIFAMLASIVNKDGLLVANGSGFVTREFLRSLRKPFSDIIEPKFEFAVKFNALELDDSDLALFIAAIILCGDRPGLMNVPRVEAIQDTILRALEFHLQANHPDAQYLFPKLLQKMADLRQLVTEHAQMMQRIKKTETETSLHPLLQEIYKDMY
Experiment: Inverse agonist activity at human PPARdelta expressed in CHO cells co-expressing GAL4-NHR-LBD assessed as transcriptional repression preincubated for 6 hrs followed by luciferin addition by luminescence method
Property Measured: pIC50
Interpret pIC50 as the negative base-10 log of the concentration measured in mol/L.

Reported pIC50 ( Cc1c(C)n(Cc2ccc(Cl)c(O[C@@H](C)C(=O)O)c2)c2ccc(C(=O)N[C@@H](C)c3ccc(C(C)(C)C)cc3)cc12 ) = 5.05

----------
What remaining at 24 h, 10000 µM was measured for each of the following?
Experiment: Stability of compound in cysteine at pH 7.4 assessed as parent compound remaining at 10 mM and measured after 24 hrs by HPLC-UV analysis
Format: physicochemical
Settings: cysteine solution, read-out: Stability
Provide only the numeric value, understood in %.

Reported remaining at 24 h, 10000 µM ( CC(C)(O)c1ccc(NC(=O)c2cc(C(=O)NCc3ccc(F)c(F)c3)c(F)cc2Cl)cc1 ) = 100

Reported remaining at 24 h, 10000 µM ( Cc1cc(N2CCOCC2)cnc1NC(=O)c1cc(C(=O)NCc2ccc(F)c(F)c2)c(F)cc1Cl ) = 100

Reported remaining at 24 h, 10000 µM ( Cc1cc(OC(F)F)ccc1NC(=O)c1cc(C(=O)NCc2ccc(F)cc2)c(F)cc1Cl ) = 51.6

----------
Assay: Stability of compound in GSH at pH 7.4 assessed as parent compound remaining at 10 mM and measured after 1 hrs by HPLC-UV analysis
Format: physicochemical
Conditions: GSH solution, read-out: Stability
Property Measured: remaining at 1 h, 10000 µM (%)
Provide only the numeric value, understood in %.

Reported remaining at 1 h, 10000 µM ( Cc1cc(N2CCOCC2)cnc1NC(=O)c1cc(C(=O)NCc2ccc(F)c(F)c2)c(F)cc1Cl ) = 100

Reported remaining at 1 h, 10000 µM ( Cc1cc(OC(F)F)ccc1NC(=O)c1cc(C(=O)NCc2ccc(F)cc2)c(F)cc1Cl ) = 74.8

Reported remaining at 1 h, 10000 µM ( CC(C)(O)c1ccc(NC(=O)c2cc(C(=O)NCc3ccc(F)c(F)c3)c(F)cc2Cl)cc1 ) = 100

----------
Assay: Stability of compound in GSH at pH 7.4 assessed as parent compound remaining at 10 mM and measured after 4 hrs by HPLC-UV analysis
Assay type: physicochemical
Conditions: GSH solution, read-out: Stability
Property Measured: remaining at 4 h, 10000 µM
Put down the number, then write its unit next to it.

Reported remaining at 4 h, 10000 µM ( CC(C)(O)c1ccc(NC(=O)c2cc(C(=O)NCc3ccc(F)c(F)c3)c(F)cc2Cl)cc1 ) = 100%

Reported remaining at 4 h, 10000 µM ( Cc1cc(N2CCOCC2)cnc1NC(=O)c1cc(C(=O)NCc2ccc(F)c(F)c2)c(F)cc1Cl ) = 100%

Reported remaining at 4 h, 10000 µM ( Cc1cc(OC(F)F)ccc1NC(=O)c1cc(C(=O)NCc2ccc(F)cc2)c(F)cc1Cl ) = 46.5%

----------
What CLint scaled at 1 µM was measured for each of the following?
Experiment: Microsomal stability in human liver microsomes assessed as intrinsic clearance at 1 uM measured upto 60 mins in presence of NADPH by HPLC-MS/MS analysis
Type: ADME, Microsome
Conditions: read-out: CLH (converted)
Put down the number, then write its unit next to it.

Reported CLint scaled at 1 µM ( Cc1cc(OC(F)F)ccc1NC(=O)c1cc(C(=O)NCc2ccc(F)cc2)c(F)cc1Cl ) = 12.7 mL/min/kg

Reported CLint scaled at 1 µM ( CC(C)(O)c1ccc(NC(=O)c2cc(C(=O)NCc3ccc(F)c(F)c3)c(F)cc2Cl)cc1 ) = 15.5 mL/min/kg

Reported CLint scaled at 1 µM ( Cc1cc(N2CCOCC2)cnc1NC(=O)c1cc(C(=O)NCc2ccc(F)c(F)c2)c(F)cc1Cl ) = 14.7 mL/min/kg

----------
Test: Stability of compound in GSH at pH 7.4 assessed as parent compound remaining at 10 mM and measured after 2 hrs by HPLC-UV analysis
Format: physicochemical
Conditions: GSH solution, read-out: Stability
What remaining at 2 h, 10000 µM was measured for each of the following?
Put down the number, then write its unit next to it.

Reported remaining at 2 h, 10000 µM ( CC(C)(O)c1ccc(NC(=O)c2cc(C(=O)NCc3ccc(F)c(F)c3)c(F)cc2Cl)cc1 ) = 100%

Reported remaining at 2 h, 10000 µM ( Cc1cc(N2CCOCC2)cnc1NC(=O)c1cc(C(=O)NCc2ccc(F)c(F)c2)c(F)cc1Cl ) = 100%

Reported remaining at 2 h, 10000 µM ( Cc1cc(OC(F)F)ccc1NC(=O)c1cc(C(=O)NCc2ccc(F)cc2)c(F)cc1Cl ) = 56.4%

----------
Target: Peroxisome proliferator-activated receptor gamma (Homo sapiens, UniProt P37231)
Sequence (P37231 whole entry, the tested form may be a part): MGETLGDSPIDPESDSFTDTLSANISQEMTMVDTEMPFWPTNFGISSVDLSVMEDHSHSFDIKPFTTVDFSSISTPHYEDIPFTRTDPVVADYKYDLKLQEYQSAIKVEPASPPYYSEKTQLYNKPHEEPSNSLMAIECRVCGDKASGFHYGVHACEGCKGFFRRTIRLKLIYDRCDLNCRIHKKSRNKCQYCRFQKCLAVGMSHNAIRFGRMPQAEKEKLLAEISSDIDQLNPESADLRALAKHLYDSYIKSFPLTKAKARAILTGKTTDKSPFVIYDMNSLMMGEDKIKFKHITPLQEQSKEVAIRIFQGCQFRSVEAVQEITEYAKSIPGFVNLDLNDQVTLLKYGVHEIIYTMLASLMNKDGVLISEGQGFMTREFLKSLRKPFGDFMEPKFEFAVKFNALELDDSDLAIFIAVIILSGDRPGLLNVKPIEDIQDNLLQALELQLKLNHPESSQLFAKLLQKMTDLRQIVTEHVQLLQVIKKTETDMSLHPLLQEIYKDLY
Experiment: Inverse agonist activity at human PPARgamma in human RT112/84 transfected with NLuc-fused FABP4 assessed as reduction in PPARgamma transactivation incubated for 6 to 18 hrs by Nano-Glo luciferase assay
What IC50 was measured for each of the following?

Reported IC50 ( O=C(NCc1ccccc1)c1cc(C(=O)Nc2ccccc2)c(Cl)c(C(F)(F)F)c1 ) = > 5 µM

Reported IC50 ( Cc1ccccc1CNC(=O)c1ccc(Cl)c(C(=O)Nc2ccccc2)c1 ) = 1.04 µM

Reported IC50 ( Cc1cccnc1NC(=O)c1cc(C(=O)NCc2ccc(F)c(F)c2)c(F)cc1Cl ) = 0.091 µM

----------
What IC50 was measured for each of the following?
Experiment: Antiproliferative activity against human UM-UC-9 assessed as inhibition of cell proliferation measured after 7 days by IncuCyte live-cell imaging assay
Conditions: UM-UC-9, 168 h

Reported IC50 ( CC(C)(O)c1ccc(NC(=O)c2cc(C(=O)NCc3ccc(F)c(F)c3)c(F)cc2Cl)cc1 ) = 40.4 nM

Reported IC50 ( Cc1cccc(-c2nc3cc(NC(=O)c4cc(C(=O)NCc5ccc(F)c(F)c5)c(F)cc4Cl)ccc3o2)c1 ) = 18.7 nM

Reported IC50 ( Cc1cc(OC(F)F)ccc1NC(=O)c1cc(C(=O)NCc2ccc(F)cc2)c(F)cc1Cl ) = 19.4 nM

Reported IC50 ( Cc1cc(N2CCOCC2)cnc1NC(=O)c1cc(C(=O)NCc2ccc(F)c(F)c2)c(F)cc1Cl ) = 98.3 nM

Reported IC50 ( Cc1cccnc1NC(=O)c1cc(C(=O)NCc2ccc(F)c(F)c2)c(F)cc1Cl ) = 695 nM

Reported IC50 ( Cc1ccccc1NC(=O)c1cc(C(=O)NCc2ccccc2)c(F)cc1Cl ) = 165 nM
